experiment: self-splicing fitness, log relative to wild type (ln ratio); higher = more splicing; Tetrahymena group I intron in knt gene, E. coli kanamycin selection, DiMSum; sequences stand for … in CUCUCU…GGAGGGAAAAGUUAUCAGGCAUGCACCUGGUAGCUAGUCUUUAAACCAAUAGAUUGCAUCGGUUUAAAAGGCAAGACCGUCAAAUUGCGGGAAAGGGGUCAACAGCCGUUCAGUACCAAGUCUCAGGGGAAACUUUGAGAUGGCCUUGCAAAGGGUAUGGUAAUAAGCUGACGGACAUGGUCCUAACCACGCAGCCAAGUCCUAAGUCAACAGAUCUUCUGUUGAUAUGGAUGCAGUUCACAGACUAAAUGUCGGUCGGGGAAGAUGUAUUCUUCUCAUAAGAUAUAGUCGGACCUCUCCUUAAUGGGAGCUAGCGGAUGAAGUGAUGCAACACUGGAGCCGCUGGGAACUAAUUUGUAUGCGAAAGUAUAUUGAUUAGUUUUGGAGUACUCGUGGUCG; conditions: 30 °C;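 note: selection with 25 µg/mL kanamycin versus none on LB agar overnight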
Class yes (1): self-splicing fitness (ln) at least -3. Class no (0): self-splicing fitness (ln) below -3.

Reference set (10 entries):
{"columns": ["ENTRY_SEQUENCE", "GROUP"],
 "data": [
  ["ACCAAGCAAUAUUACGCAAC", "no (0)"],
  ["GGCUAGCAAUAUUACGGCCA", "yes (1)"],
  ["CCUCAGCAAUAUUACGAGCG", "yes (1)"],
  ["UCCGAGCAAUAUUACGUACG", "no (0)"],
  ["CAACAGCAAUAUUACGGGCU", "no (0)"],
  ["CACAAGCAAUAUUACGAUCC", "yes (1)"],
  ["AAAGAGCAAUAUUACGUUUA", "yes (1)"],
  ["AAAAAGCAAUAUUACGGCAG", "yes (1)"],
  ["GUAAAGCAAUAUUACGAUUA", "yes (1)"],
  ["ACAUAGCAAUAUUACGUCUU", "yes (1)"]
]}

Please examine the following record next.
Decide: is the reported value of self-splicing fitness (ln) for CGCUAGCAAUAUUACGUCAA equal to or greater than -3? no (0)

* * *

Each entry below lists one item and its recorded self-splicing fitness (ln) value.
experiment: self-splicing fitness, log relative to wild type (ln ratio); higher = more splicing; Tetrahymena group I intron in knt gene, E. coli kanamycin selection, DiMSum; sequences stand for … in CUCUCU…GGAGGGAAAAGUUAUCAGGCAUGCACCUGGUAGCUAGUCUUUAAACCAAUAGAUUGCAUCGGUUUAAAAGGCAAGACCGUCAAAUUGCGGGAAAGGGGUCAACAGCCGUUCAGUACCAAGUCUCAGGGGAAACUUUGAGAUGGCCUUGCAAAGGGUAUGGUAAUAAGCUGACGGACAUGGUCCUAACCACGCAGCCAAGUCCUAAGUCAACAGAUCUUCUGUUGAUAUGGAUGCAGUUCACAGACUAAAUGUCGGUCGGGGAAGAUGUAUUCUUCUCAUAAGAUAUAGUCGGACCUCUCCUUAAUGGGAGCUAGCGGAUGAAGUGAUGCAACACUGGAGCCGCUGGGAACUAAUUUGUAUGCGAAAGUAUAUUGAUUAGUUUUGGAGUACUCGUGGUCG; conditions: 30 °C
Lab note: write the figure by itself, no unit.

Output self-splicing fitness (ln) of AACGAGCAAUAUUACGCGCC -2.77

Output self-splicing fitness (ln) of CGACAGCAAUAUUACGACCU -1.56

Output self-splicing fitness (ln) of AGUCAGCAAUAUUACGUACC -0.711

Output self-splicing fitness (ln) of AUGGAGCAAUAUUACGUUUU -3.1

Output self-splicing fitness (ln) of UAUCAGCAAUAUUACGCGAA -0.515

Output self-splicing fitness (ln) of CAUGAGCAAUAUUACGGUGG -1.49

Output self-splicing fitness (ln) of UGCGAGCAAUAUUACGAUGA -2.13

Output self-splicing fitness (ln) of CGUAAGCAAUAUUACGUGUU -2.37

Output self-splicing fitness (ln) of AUACAGCAAUAUUACGAAAG -2.62

Output self-splicing fitness (ln) of ACCAAGCAAUAUUACGCUAU -1.66

Output self-splicing fitness (ln) of UGCAAGCAAUAUUACGUGGU -4.13

Output self-splicing fitness (ln) of GACCAGCAAUAUUACGGCUU -0.0255

Output self-splicing fitness (ln) of CUCGAGCAAUAUUACGGUGC -2.95

Output self-splicing fitness (ln) of AGAGAGCAAUAUUACGGCUU -1.65

Output self-splicing fitness (ln) of GUCAAGCAAUAUUACGUAUC -2.71

* * *

assay: self-splicing fitness, log relative to wild type (ln ratio); higher = more splicing; Tetrahymena group I intron in knt gene, E. coli kanamycin selection, DiMSum; sequences stand for … in CUCUCU…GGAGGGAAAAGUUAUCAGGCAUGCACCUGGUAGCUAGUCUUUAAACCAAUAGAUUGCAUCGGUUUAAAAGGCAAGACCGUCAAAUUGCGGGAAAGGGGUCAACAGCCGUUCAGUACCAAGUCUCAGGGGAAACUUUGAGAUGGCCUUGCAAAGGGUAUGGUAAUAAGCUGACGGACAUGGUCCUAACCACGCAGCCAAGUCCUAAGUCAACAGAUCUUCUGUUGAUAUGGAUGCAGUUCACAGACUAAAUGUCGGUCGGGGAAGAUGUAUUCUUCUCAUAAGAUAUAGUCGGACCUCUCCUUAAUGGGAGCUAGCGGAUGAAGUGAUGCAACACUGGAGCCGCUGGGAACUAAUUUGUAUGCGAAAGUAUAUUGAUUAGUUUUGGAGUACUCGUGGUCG; settings: 37 °C
Each entry below lists one item and its recorded self-splicing fitness (ln) value.
Lab note: write the figure by itself, no unit.

Output self-splicing fitness (ln) of GACUAGCAAUAUUACGCCUG -0.091

Output self-splicing fitness (ln) of UGUGAGCAAUAUUACGGGGU -2.75

Output self-splicing fitness (ln) of CGACAGCAAUAUUACGAACC -0.556

* * *

Each entry below lists one item and its recorded self-splicing fitness (ln) value.
test: self-splicing fitness, log relative to wild type (ln ratio); higher = more splicing; Tetrahymena group I intron in knt gene, E. coli kanamycin selection, DiMSum; sequences stand for … in CUCUCU…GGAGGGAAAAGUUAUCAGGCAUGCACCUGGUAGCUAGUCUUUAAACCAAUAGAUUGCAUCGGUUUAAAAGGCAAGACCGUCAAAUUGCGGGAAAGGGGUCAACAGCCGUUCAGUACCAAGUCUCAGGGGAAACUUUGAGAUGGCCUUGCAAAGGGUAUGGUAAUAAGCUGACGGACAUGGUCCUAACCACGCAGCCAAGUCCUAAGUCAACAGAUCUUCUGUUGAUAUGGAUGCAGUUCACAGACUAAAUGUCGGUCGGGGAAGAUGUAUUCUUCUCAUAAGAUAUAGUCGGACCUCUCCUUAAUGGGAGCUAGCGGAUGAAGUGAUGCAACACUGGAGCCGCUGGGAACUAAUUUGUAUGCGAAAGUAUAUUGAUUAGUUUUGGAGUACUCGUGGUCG; conditions: 30 °C
Lab note: write the figure by itself, no unit.

Output self-splicing fitness (ln) of CUCUAGCAAUAUUACGUAAG -1.57

Output self-splicing fitness (ln) of GGGCAGCAAUAUUACGUAUG -3.15

Output self-splicing fitness (ln) of UCUCAGCAAUAUUACGGUGU -2.03

* * *

assay: self-splicing fitness, log relative to wild type (ln ratio); higher = more splicing; Tetrahymena group I intron in knt gene, E. coli kanamycin selection, DiMSum; sequences stand for … in CUCUCU…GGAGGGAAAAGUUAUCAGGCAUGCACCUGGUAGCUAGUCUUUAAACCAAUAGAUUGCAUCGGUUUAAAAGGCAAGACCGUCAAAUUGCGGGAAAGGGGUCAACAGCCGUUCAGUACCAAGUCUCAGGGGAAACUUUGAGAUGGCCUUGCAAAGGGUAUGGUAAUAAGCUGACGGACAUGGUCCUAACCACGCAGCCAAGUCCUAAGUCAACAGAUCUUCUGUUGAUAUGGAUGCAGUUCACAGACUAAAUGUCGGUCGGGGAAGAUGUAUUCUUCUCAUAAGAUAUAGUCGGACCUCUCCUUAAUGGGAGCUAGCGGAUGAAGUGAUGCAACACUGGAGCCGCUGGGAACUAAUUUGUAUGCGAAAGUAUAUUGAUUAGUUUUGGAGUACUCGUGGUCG; details: 30 °C
REPORTED_METRIC: self-splicing fitness (ln)

{"columns": ["ENTRY_SEQUENCE", "RESULT"],
 "data": [
  ["AGCUAGCAAUAUUACGCUUU", -3.48],
  ["CUGUAGCAAUAUUACGUACU", -2.61]
]}

Output self-splicing fitness (ln) of AAUAAGCAAUAUUACGACGG -2.35

Output self-splicing fitness (ln) of ACUGAGCAAUAUUACGAACA -3.84

Output self-splicing fitness (ln) of GUCGAGCAAUAUUACGUCUU -2

Output self-splicing fitness (ln) of ACACAGCAAUAUUACGACUC -0.737

Output self-splicing fitness (ln) of UAAGAGCAAUAUUACGAGUC -3.17

Output self-splicing fitness (ln) of AUCUAGCAAUAUUACGGUAC -2.16

Output self-splicing fitness (ln) of UCAUAGCAAUAUUACGUUCU -2.79

Output self-splicing fitness (ln) of ACCGAGCAAUAUUACGUGCA -2.45

Output self-splicing fitness (ln) of GUUUAGCAAUAUUACGCCGG -2.37

Output self-splicing fitness (ln) of UUUAAGCAAUAUUACGUGAA -0.503

Output self-splicing fitness (ln) of GUUAAGCAAUAUUACGCGAC -3.02

Output self-splicing fitness (ln) of AGAUAGCAAUAUUACGACAC -1.11

Output self-splicing fitness (ln) of CGUAAGCAAUAUUACGCCAG -2.15

Output self-splicing fitness (ln) of CCUAAGCAAUAUUACGCGGG -3.96

Output self-splicing fitness (ln) of AAUGAGCAAUAUUACGGCCG -2.12

Output self-splicing fitness (ln) of GCAAAGCAAUAUUACGGUAC -1.91

Output self-splicing fitness (ln) of CUGGAGCAAUAUUACGAGGU -3.48

Output self-splicing fitness (ln) of GUAGAGCAAUAUUACGCGGC -3.37

Output self-splicing fitness (ln) of AAACAGCAAUAUUACGAUGA -1.34
